measured_on: Mitogen-activated protein kinase 14 (Mus musculus, UniProt P47811)
Sequence (P47811 whole entry): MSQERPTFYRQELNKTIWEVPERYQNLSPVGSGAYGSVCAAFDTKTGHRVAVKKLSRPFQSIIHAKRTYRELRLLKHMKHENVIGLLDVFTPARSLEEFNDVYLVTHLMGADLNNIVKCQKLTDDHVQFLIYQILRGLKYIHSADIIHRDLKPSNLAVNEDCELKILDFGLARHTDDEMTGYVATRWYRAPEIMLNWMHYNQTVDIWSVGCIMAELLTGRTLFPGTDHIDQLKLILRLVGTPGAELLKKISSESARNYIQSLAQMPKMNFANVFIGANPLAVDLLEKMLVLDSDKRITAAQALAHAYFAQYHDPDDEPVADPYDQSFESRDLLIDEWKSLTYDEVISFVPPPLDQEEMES
protocol_description: Inhibitory activity against murine p38-alpha MAPK
Provide the recorded IC50 for the entries that follow.
Your answer should be a number followed by the unit of measure.

Known IC50 results, listed for orientation:
[
  {
    "mol": "COc1ccc(C#CCN2CCN(C)CC2)cc1-c1[nH]nc2nc(Nc3ccc(F)cc3F)ncc12",
    "measured_on": "Mitogen-activated protein kinase 14 (Mus musculus, UniProt P47811)",
    "observed_measurement": "0.9 nM"
  },
  {
    "mol": "COc1ccc(CNC2CCCC2)cc1-c1[nH]nc2nc(Nc3ccc(F)cc3F)ccc12",
    "measured_on": "Mitogen-activated protein kinase 14 (Mus musculus, UniProt P47811)",
    "observed_measurement": "58 nM"
  },
  {
    "mol": "COc1ccc(C(=O)NC2CCCC2)cc1-c1[nH]nc2nc(Nc3ccc(F)cc3F)ccc12",
    "measured_on": "Mitogen-activated protein kinase 14 (Mus musculus, UniProt P47811)",
    "observed_measurement": "5 nM"
  },
  {
    "mol": "COc1ccc(C#CC(C)(C)O)cc1-c1[nH]nc2nc(Nc3ccc(F)cc3F)cnc12",
    "measured_on": "Mitogen-activated protein kinase 14 (Mus musculus, UniProt P47811)",
    "observed_measurement": "7 nM"
  },
  {
    "mol": "COc1ccc(CCC(C)(C)N)cc1-c1[nH]nc2nc(Nc3ccc(F)cc3F)ncc12",
    "measured_on": "Mitogen-activated protein kinase 14 (Mus musculus, UniProt P47811)",
    "observed_measurement": "43 nM"
  }
]

Hi, could you look up IC50 for each item in my list?
1. COc1ccc(C#CC(C)(C)N)cc1-c1[nH]nc2nc(Nc3ccc(F)cc3F)ccc12
2. COc1ccc(C(=O)O)cc1-c1[nH]nc2nc(Nc3ccc(F)cc3F)ccc12
3. COc1ccc(CCC(C)(C)O)cc1-c1[nH]nc2nc(Nc3ccc(F)cc3F)cnc12
4. COc1ccc(CNC2CCOCC2)cc1-c1n[nH]c2nc(Nc3ccc(F)cc3F)ccc12

1: 20 nM; 2: 200 nM; 3: 21 nM; 4: 94 nM

Hi, could you look up IC50 for each item in my list?
1. COc1ccc(C(=O)N2CCNCC2)cc1-c1[nH]nc2nc(Nc3ccc(F)cc3F)ccc12
2. COc1ccc(CCC(C)(C)O)cc1-c1[nH]nc2nc(Nc3ccc(F)cc3F)ncc12

1. 280 nM
2. 47 nM

###

protocol_description: AUC in rat
Assay type: ADME, organism-based
experimental_parameters: plasma
quantity: AUC (ng·h/mL)
One number for each entry, in ng·h/mL.

[
  {
    "mol": "COc1ccc(C#CC(C)(C)N)cc1-c1[nH]nc2nc(Nc3ccc(F)cc3F)ncc12",
    "observed_measurement": 512
  }
]

Tell me measured AUC for COc1ccc(C#CC(C)(C)N)cc1-c1[nH]nc2nc(Nc3ccc(F)cc3F)ccc12 please.
422

###

System: Mus musculus
protocol_description: Inhibition of LPS-induced TNFalpha release in mouse at 20 mg/kg, po
Type: functional
experimental_parameters: OF1
quantity: inhibition in vivo at 20 mg/kg (%)
Numbers only, in %.

Known inhibition in vivo at 20 mg/kg results, listed for orientation:
[
  {
    "mol": "COc1ccc(CCC(C)(C)O)cc1-c1[nH]nc2nc(Nc3ccc(F)cc3F)cnc12",
    "measured_on": "Mus musculus",
    "units": "%",
    "observed_measurement": 94
  },
  {
    "mol": "COc1ccc(C(=O)NC2CCOCC2)cc1-c1[nH]nc2nc(Nc3ccc(F)cc3F)ccc12",
    "measured_on": "Mus musculus",
    "units": "%",
    "observed_measurement": 97
  }
]

Hi, could you look up inhibition in vivo at 20 mg/kg for each item in my list?
1. COc1ccc(C(=O)N2CCNCC2)cc1-c1[nH]nc2nc(Nc3ccc(F)cc3F)ccc12
2. COc1ccc(C#CC(C)(C)O)cc1-c1[nH]nc2nc(Nc3ccc(F)cc3F)cnc12
3. COc1ccc(C(=O)NC2CCCC2)cc1-c1[nH]nc2nc(Nc3ccc(F)cc3F)ccc12

3
98
97

###

Provide the recorded IC50 for the entries that follow.
measured_on: Mitogen-activated protein kinase 14 (Mus musculus, UniProt P47811)
protocol_description: Inhibitory activity against murine p38-alpha MAPK
One number for each entry, in nM.

Known IC50 results, listed for orientation:
[
  {
    "mol": "COc1ccc(CCCN2CCN(C)CC2)cc1-c1[nH]nc2nc(Nc3ccc(F)cc3F)ncc12",
    "IC50 (nM)": 14
  },
  {
    "mol": "COc1ccc(C(=O)NC2CCOCC2)cc1-c1[nH]nc2nc(Nc3ccc(F)cc3F)ccc12",
    "IC50 (nM)": 0.7
  },
  {
    "mol": "COc1ccc(C#CC(C)(C)N)cc1-c1[nH]nc2nc(Nc3ccc(F)cc3F)cnc12",
    "IC50 (nM)": 10
  },
  {
    "mol": "COc1ccc(CCCN(C)C)cc1-c1[nH]nc2nc(Nc3ccc(F)cc3F)ncc12",
    "IC50 (nM)": 11
  }
]

Hi, could you look up IC50 for each item in my list?
1. COc1ccc(C#CC(C)(C)O)cc1-c1[nH]nc2nc(Nc3ccc(F)cc3F)ncc12
2. COc1ccc(C#CC(C)(C)N)cc1-c1[nH]nc2nc(Nc3ccc(F)cc3F)ncc12
3. COc1ccc(CCC(C)(C)N)cc1-c1[nH]nc2nc(Nc3ccc(F)cc3F)cnc12
4. COc1ccc(CCC(C)(C)N)cc1-c1[nH]nc2nc(Nc3ccc(F)cc3F)ccc12
5. COc1ccc(C#CCN(C)C)cc1-c1[nH]nc2nc(Nc3ccc(F)cc3F)ncc12

1. 19
2. 12
3. 29
4. 33
5. 0.6

###

protocol_description: Oral bioavailability in rat
Format: ADME, organism-based
experimental_parameters: in vivo
Decide using bioavailability: a value greater than or equal to 20% is T, a smaller one is F.

Some solved cases for reference:
[
  {
    "mol": "COc1ccc(C#CC(C)(C)N)cc1-c1[nH]nc2nc(Nc3ccc(F)cc3F)cnc12",
    "class_label": "F"
  },
  {
    "mol": "COc1ccc(C(=O)NC2CCOCC2)cc1-c1[nH]nc2nc(Nc3ccc(F)cc3F)ccc12",
    "class_label": "T"
  },
  {
    "mol": "COc1ccc(C(=O)NC2CCCC2)cc1-c1[nH]nc2nc(Nc3ccc(F)cc3F)ccc12",
    "class_label": "T"
  },
  {
    "mol": "COc1ccc(C#CC(C)(C)O)cc1-c1[nH]nc2nc(Nc3ccc(F)cc3F)cnc12",
    "class_label": "T"
  },
  {
    "mol": "COc1ccc(C#CC(C)(C)N)cc1-c1[nH]nc2nc(Nc3ccc(F)cc3F)ccc12",
    "class_label": "T"
  }
]

From here, focus on the item given below.
Answer whether bioavailability of COc1ccc(C#CC(C)(C)N)cc1-c1[nH]nc2nc(Nc3ccc(F)cc3F)ncc12 is greater than or equal to 20%.
F

###

System: Mus musculus
protocol_description: Inhibition of LPS-induced TNFalpha release in mouse at 20 mg/kg, po
Assay type: functional
experimental_parameters: OF1
Provide the recorded inhibition in vivo at 20 mg/kg for the entries that follow.

[
  {
    "mol": "COc1ccc(C#CC(C)(C)N)cc1-c1[nH]nc2nc(Nc3ccc(F)cc3F)cnc12",
    "measured_on": "Mus musculus",
    "inhibition in vivo at 20 mg/kg": "98%"
  }
]

Hi, could you look up inhibition in vivo at 20 mg/kg for each item in my list?
1. COc1ccc(CCCN(C)C)cc1-c1[nH]nc2nc(Nc3ccc(F)cc3F)ncc12
2. COc1ccc(C#CC(C)(C)N)cc1-c1[nH]nc2nc(Nc3ccc(F)cc3F)ncc12
3. COc1ccc(CCC(C)(C)N)cc1-c1[nH]nc2nc(Nc3ccc(F)cc3F)ncc12
4. COc1ccc(CCC(C)(C)N)cc1-c1[nH]nc2nc(Nc3ccc(F)cc3F)cnc12

1. 93%
2. 85%
3. 68%
4. 0%

###

measured_on: Receptor tyrosine-protein kinase erbB-2 (Homo sapiens, UniProt P04626)
Sequence (P04626 whole entry): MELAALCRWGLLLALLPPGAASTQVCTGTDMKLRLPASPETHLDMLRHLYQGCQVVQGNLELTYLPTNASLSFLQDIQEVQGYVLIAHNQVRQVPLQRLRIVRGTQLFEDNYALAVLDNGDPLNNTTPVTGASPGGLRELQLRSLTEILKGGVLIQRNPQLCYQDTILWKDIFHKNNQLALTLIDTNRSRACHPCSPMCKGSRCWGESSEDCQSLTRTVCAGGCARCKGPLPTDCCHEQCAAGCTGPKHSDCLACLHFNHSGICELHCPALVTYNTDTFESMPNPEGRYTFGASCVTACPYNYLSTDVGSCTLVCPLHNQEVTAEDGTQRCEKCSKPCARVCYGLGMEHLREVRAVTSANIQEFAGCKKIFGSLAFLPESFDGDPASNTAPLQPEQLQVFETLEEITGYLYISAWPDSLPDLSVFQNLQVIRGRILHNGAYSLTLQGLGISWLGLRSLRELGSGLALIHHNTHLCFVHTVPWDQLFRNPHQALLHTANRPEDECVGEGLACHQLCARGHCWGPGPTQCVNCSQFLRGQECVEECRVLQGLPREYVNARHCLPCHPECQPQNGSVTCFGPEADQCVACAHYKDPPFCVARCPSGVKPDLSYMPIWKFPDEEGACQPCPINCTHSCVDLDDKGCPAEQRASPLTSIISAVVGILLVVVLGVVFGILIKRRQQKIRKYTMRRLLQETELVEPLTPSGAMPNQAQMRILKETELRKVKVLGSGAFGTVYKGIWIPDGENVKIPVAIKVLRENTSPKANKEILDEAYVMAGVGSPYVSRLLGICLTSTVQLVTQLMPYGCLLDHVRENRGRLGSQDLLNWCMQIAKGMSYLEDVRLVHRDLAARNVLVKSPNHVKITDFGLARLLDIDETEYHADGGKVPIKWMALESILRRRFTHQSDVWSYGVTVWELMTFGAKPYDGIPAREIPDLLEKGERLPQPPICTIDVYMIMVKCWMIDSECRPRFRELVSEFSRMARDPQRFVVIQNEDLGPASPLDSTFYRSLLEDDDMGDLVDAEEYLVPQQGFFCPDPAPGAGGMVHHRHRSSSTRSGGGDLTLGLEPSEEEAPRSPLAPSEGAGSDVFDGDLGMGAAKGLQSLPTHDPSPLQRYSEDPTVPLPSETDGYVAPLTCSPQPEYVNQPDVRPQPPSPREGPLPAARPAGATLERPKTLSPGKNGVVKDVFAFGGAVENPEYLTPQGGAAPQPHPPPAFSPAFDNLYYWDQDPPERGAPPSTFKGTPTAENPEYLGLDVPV
quantity: pIC50
Give bare numbers, as −log10 of the molar value.

Tell me measured pIC50 for COc1ccc(C#CC(C)(C)N)cc1-c1[nH]nc2nc(Nc3ccc(F)cc3F)ncc12 please.
5.30

###

protocol_description: Cmax in rat administered at 1 mg/kg, po
Type: ADME, organism-based
Parameters: dose 1 mg/kg, route oral
experimental_parameters: in vivo
Provide the recorded Cmax for the entries that follow.
One number for each entry, in nM.

Known Cmax results, listed for orientation:
[
  {
    "mol": "COc1ccc(C(=O)NC2CCCC2)cc1-c1[nH]nc2nc(Nc3ccc(F)cc3F)ccc12",
    "Cmax [nM]": 6
  },
  {
    "mol": "COc1ccc(C#CC(C)(C)O)cc1-c1[nH]nc2nc(Nc3ccc(F)cc3F)cnc12",
    "Cmax [nM]": 160
  },
  {
    "mol": "COc1ccc(C#CC(C)(C)N)cc1-c1[nH]nc2nc(Nc3ccc(F)cc3F)ccc12",
    "Cmax [nM]": 52
  },
  {
    "mol": "COc1ccc(CCC(C)(C)N)cc1-c1[nH]nc2nc(Nc3ccc(F)cc3F)ccc12",
    "Cmax [nM]": 11
  }
]

# context switch: different compound, same Cmax
Tell me measured Cmax for COc1ccc(C(=O)NC2CCOCC2)cc1-c1[nH]nc2nc(Nc3ccc(F)cc3F)ccc12 please.
6

// data source = ChEMBL document CHEMBL1147752
